Experiment: Cytotoxic concentration against hepatitis C virus
Assay type: functional, Hepacivirus hominis
Quick list: CC50 per entry.

// known answers, use as guide
• CN(C)C(=O)Cn1c(-c2ccccc2Cl)c(C2CCCCC2)c2ccc(C(=O)O)cc21 = > 50 µM
• CN(C)C(=O)Cn1c(-c2cccc(F)c2)c(C2CCCCC2)c2ccc(C(=O)O)cc21 = > 50 µM
• CN(C)C(=O)Cn1c(-c2ccccc2)c(C2CCCCC2)c2ccc(C(=O)O)cc21 = > 50 µM

For the next question, use this compound.
The reported value for "Cc1ccc(-c2c(C3CCCCC3)c3ccc(C(=O)O)cc3n2CC(=O)N(C)C)cc1" in terms of CC50 is > 50 µM
